# assay method text: yeast display, Sf9 membrane polyspecificity reagent, FACS + sequencing; frameworks hold sequencing errors
endpoint name: polyreactivity (PSR sort gate)

A selection of reference data follows.
residue_codes=QVQLVESGGGLVQAGGSLRLSCAASGFTLYYNAMGWYRQAPGKERELVAAINIGDSTNYADSVKGRFTISRDNAKNTVYLQMNSLKPEDTAVYYCAAVLLPYGVFYTVAINVDYWGQGTQVTVSS endpoint_value="low polyreactivity"
residue_codes=QVQLVESGGGLVQAGGSLRLSCAASGRTFYRNAMGWYRQAPGKETELVAAITWSGVSTYYADSVKGRFTISRDNAKNTVYIQMNSLKPEDTAVYYCSRARVLRNGHYFQLRNYDYWGQGPQVTVSS endpoint_value="high polyreactivity"
residue_codes=QVHLVESAAGLVQAGGSLRLSCAASGSTFIGNAMVWYRQAPGKERELVAAITRSGGTTYYADSVKGRFTISRDNAKNTVYLQMNSLKPEDTAVYYCNKTHFFGYDSWGQGTQVTVSS endpoint_value="low polyreactivity"
residue_codes=QVQLVESGGGLVQAGGSLRLSCAASGSIIYSYAMGWYRQAPGKERELVAAISTSAGTTYYADSVKGRFTISRDNAKNTVYLQMNSLKPEDTAVYYCATQVWSHKYWYYYWGQGTQVTVSS endpoint_value="high polyreactivity"

# polyreactivity (PSR sort gate) (sequence: QVQLVESGGGLVQAGGSLRLSCAASGSTCWSNAMGWYRQAPGKERELVAGISWSDGSTYADSVKGRFTISRDNAKNTVYLQMNSLKPEDTAVYYCAAADNYRGYTYEYDYWGQGTQVTVSS ) is low polyreactivity

====

# assay method text: yeast display, Sf9 membrane polyspecificity reagent, FACS + sequencing; frameworks hold sequencing errors
endpoint name: polyreactivity (PSR sort gate)

residue_codes=QVQLVESGGGLVQAGGRLRLSCAASVGIFYYYAMGWYRQAPGKERELVATITYTGGSTYADSVKGRFTISRDNAKNTVYLQMNSLKPEDTAVYYCAADGRSRSYYGYDHWGQGTQVTVSS endpoint_value="low polyreactivity"
residue_codes=QVQLVESGGGLVQAGGSLRLSCAASGSIVYPYAMGWNRQAPGKERELVAAITGHGGSTYYADSVKGRFTISRDNAKNTVYLQMNSMKPEDTAVYYCAAYRVVYSDAYYYWGQGTQVTVSS endpoint_value="low polyreactivity"

====

# assay method text: yeast display, Sf9 membrane polyspecificity reagent, FACS + sequencing; frameworks hold sequencing errors
endpoint name: polyreactivity (PSR sort gate)

A selection of reference data follows.
residue_codes=QVQLVESGGGLVQAGGSLRVSCAASGSIFDVYTMGWYRQAPGKERELVAAISKRSGRTYYADSVKGRFTISRDNAKNTVYLQMNSLKPEDTAVYYCAKDFGYWGQGTQVTVSS endpoint_value="low polyreactivity"
residue_codes=QVQLVESGGGLVQAGGSLRLSCAASGSTFGTYAMGWYRQEPGKERELVAAIRWSGVSTYYADSVKGRFTISRDNAKNTVYLQMNSLKPEDTAVYYCAVALWVRGTYIYEYWGQGTQVTVSS endpoint_value="high polyreactivity"
residue_codes=QVQLVESGGGLVQAGCSRRLSWAASGSTFPDYVMGWDRQAPGKERELVAAISSIGGSTYYADSVKGRFTISRDNAKNTVYLQMNSLKPEDSAVYYCAAENSYFYPFDYWGQGTQVTVSS endpoint_value="low polyreactivity"
residue_codes=QFQLVESGGGLDQAGGSLRLSCAASGRIFDGYVMGWYRQAPGKDRELVAAISSSGGRTYYADSVKGRFTISRDNAKNTVYLQMNCLKPDDTAVYYCAARYGRYRSVDYWGQGTQVTVSS endpoint_value="high polyreactivity"
residue_codes=HVQLVETGGGLVQAGGSLRLSCAASGRTFDSYTMGWYRQAPGKERELVADITFTGGSTYYADSVKGRFTISRDNAKNTVYLQMNSLKPEATAVYYCNADREYKWYFRYDYWGQGTQVTVSS endpoint_value="low polyreactivity"

# polyreactivity (PSR sort gate) (sequence: QVQLVESGGGLVQAGGSLRLSCAASGYTFRWYVMGWYRQAPGKERELVAAISQSGGDTYYADSVKGRFTISRDNAKNTVYLQMNSLKPEDTAVYYCAVGRVGRFYYWGQGTQVTVSS ) is high polyreactivity

# polyreactivity (PSR sort gate) (sequence: QVQLVESGGRLVQAGGSLRLSCAASGSIFRSNAMGWYRQAPGKERELVATISSSTGSTYYADSVKGRFTISRDNAKNTVYLQMNSLKPEDTAVYNCAAVQPVKSSSGYHFWYYWGQGTQVTVSS ) is high polyreactivity
